These measurements were taken from patent US9216999B2.

Documented IC50 across a set of compounds
target: Tyk2 (Homo sapiens (Human))
protocol: Enzyme assay (Assay Example^a 1), Tyk2
Assay type: biochemical
test.context: ATP 100 μM; Table^a 154
Unit µM implied. Number only.

{"compound": "Fc1ccc(CCN[C@H]2CC[C@H](c3nnn4cnc5[nH]ccc5c34)CC2)cc1 [201b]", "IC50, µM": 0.1}
{"compound": "c1cc2c(ncn3nnc(C4CCC4)c23)[nH]1", "IC50, µM": 0.41}
{"compound": "CS(=O)(=O)c1ccc(CN2CCC(c3nnn4cnc5[nH]ccc5c34)CC2)cc1", "IC50, µM": 0.65}
{"compound": "Clc1cnccc1CN1CCC(c2nnn3cnc4[nH]ccc4c23)CC1", "IC50, µM": 0.31}
{"compound": "FC(F)(F)CNC[C@H]1CC[C@H](c2nnn3cnc4[nH]ccc4c23)CC1", "IC50, µM": 0.063}

Reported IC50 ( O=S(=O)(c1ccc(NC[C@H]2CC[C@H](c3nnn4cnc5[nH]ccc5c34)CC2)cc1)C(F)(F)F ) = 0.46

Note to self: IC50 recorded for N[C@H]1CC[C@H](c2nnn3cnc4[nH]ccc4c23)CC1 was 0.44

Recorded IC50 (compound c1ccc(CN[C@H]2CC[C@@H](c3nnn4cnc5[nH]ccc5c34)CC2)cc1 [194a] ): 0.33

The compound listed as Fc1cc(C(F)(F)F)ccc1CN1CCC(c2nnn3cnc4[nH]ccc4c23)CC1 shows IC50 equal to 0.31

Please fill in: IC50 reported for N#C[C@H]1CCN(C[C@H]2CC[C@H](c3nnn4cnc5[nH]ccc5c34)CC2)C1 = 0.36

Lab note: measured IC50 of Clc1ccc(NC2CCC(c3nnn4cnc5[nH]ccc5c34)CC2)cc1 (centres unmarked) was 0.75

// CS(=O)(=O)c1ccc2c(c1)CCN2C[C@H]1CC[C@H](c2nnn3cnc4[nH]ccc4c23)CC1 : IC50 value = 0.38

----------
We begin with a simple list: items and their reported IC50.
target: JAK3 (Homo sapiens (Human))
protocol: Enzyme assay (Assay Example^a 1), JAK3
Assay type: biochemical
test.context: ATP 100 μM; Table^a 154
Use µM as the unit, but write only the number.

{"test.smiles": "Fc1cc(Cl)ccc1CN1CCC(c2nnn3cnc4[nH]ccc4c23)CC1", "IC50 [µM]": 0.059}

Bench note, JAK3 (Homo sapiens (Human)): entry Fc1ccc(CN2CCC(c3nnn4cnc5[nH]ccc5c34)CC2)c(Cl)c1 , its IC50 = 0.1

----------
target: Tyk2 (Homo sapiens (Human), UniProt P29597)
Sequence (P29597 whole entry): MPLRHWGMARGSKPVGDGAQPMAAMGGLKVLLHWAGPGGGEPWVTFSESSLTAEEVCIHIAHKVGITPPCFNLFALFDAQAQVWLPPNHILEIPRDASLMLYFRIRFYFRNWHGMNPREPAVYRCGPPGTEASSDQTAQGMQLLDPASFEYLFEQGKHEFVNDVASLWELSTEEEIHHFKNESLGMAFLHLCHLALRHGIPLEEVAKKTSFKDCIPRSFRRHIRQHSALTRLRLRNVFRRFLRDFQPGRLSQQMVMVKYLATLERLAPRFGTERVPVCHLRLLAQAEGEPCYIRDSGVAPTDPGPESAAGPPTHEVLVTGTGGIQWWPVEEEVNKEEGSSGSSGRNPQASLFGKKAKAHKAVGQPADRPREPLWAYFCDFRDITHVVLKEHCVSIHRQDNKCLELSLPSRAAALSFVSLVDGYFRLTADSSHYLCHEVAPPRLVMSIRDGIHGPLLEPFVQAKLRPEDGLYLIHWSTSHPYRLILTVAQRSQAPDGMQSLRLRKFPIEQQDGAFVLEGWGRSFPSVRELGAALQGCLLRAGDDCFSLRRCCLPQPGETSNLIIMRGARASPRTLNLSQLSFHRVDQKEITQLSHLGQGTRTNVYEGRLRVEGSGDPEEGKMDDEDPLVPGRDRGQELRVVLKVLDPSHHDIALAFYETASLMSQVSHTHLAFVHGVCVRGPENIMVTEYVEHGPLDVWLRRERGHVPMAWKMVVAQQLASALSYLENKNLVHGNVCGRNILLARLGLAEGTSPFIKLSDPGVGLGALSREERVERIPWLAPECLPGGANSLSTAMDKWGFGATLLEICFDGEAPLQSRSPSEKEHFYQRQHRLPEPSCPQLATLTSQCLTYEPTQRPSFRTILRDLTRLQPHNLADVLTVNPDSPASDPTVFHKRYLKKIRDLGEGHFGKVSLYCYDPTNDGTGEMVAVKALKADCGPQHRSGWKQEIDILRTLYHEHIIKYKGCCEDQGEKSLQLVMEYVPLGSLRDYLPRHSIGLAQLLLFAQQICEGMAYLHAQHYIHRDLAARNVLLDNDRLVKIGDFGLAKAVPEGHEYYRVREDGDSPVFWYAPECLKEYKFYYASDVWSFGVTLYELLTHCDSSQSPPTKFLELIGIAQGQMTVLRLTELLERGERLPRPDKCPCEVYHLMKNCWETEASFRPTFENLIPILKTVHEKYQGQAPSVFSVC
protocol: Enzyme assay (Assay Example^a 1), Tyk2
Assay type: biochemical
test.context: ATP 100 μM; Table^a 154
Each entry below carries its reported IC50.
State just the number; it will be interpreted in µM.

In the examples that follow, each entry is paired with its recorded IC50.
{"compound": "N#Cc1ccc(NC[C@H]2CC[C@H](c3nnn4cnc5[nH]ccc5c34)CC2)cc1C(F)(F)F [compound 105]", "assay.metric": "IC50", "unit": "µM", "quantitative.readout": 0.37}
{"compound": "OC(CN[C@H]1CC[C@H](c2nnn3cnc4[nH]ccc4c23)CC1)c1ccccc1 (mixture of isomers) [202b]", "assay.metric": "IC50", "unit": "µM", "quantitative.readout": 0.26}
{"compound": "Clc1ccc(CNC[C@H]2CC[C@H](c3nnn4cnc5[nH]ccc5c34)CC2)cc1 [compound 177]", "assay.metric": "IC50", "unit": "µM", "quantitative.readout": 0.0028}

Field IC50 (entry N#Cc1ccc(CN[C@H]2CC[C@H](c3nnn4cnc5[nH]ccc5c34)CC2)cc1 [137b] ) reads 0.088

IC50 reading for CC1CCN(C(=O)CC#N)CC1c1nnn2cnc3[nH]ccc3c12 (stereo not drawn) [compound 12] : 0.91

c1cc2c(ncn3nnc(C4CCCCCC4)c23)[nH]1 [compound 66] yielded IC50 of 0.027

IC50 reading for FC1(F)CCC(c2nnn3cnc4[nH]ccc4c23)CC1 [compound 64] : 0.31

Item: O[C@H](CN[C@H]1CC[C@H](c2nnn3cnc4[nH]ccc4c23)CC1)c1ccccc1 [203b] | IC50: 0.33

----------
target: JAK2 (Homo sapiens (Human), UniProt O60674)
protocol: Enzyme assay (Assay Example^a 1), JAK2
Format: biochemical
test.context: ATP 100 μM
assay.metric: IC50 (µM)
Write the answer as a number in µM, unit excluded.

# count of solved cases: 7
{"molecule": "N#Cc1cc(NC[C@H]2CC[C@H](c3nnn4cnc5[nH]ccc5c34)CC2)ccc1Cl", "IC50 / µM": 0.22}
{"molecule": "O=C(NC[C@@H](O)c1ccccc1)[C@H]1CC[C@H](c2nnn3cnc4[nH]ccc4c23)CC1", "IC50 / µM": 0.031}
{"molecule": "O=C(N[C@H]1CCN(C[C@H]2CC[C@H](c3nnn4cnc5[nH]ccc5c34)CC2)C1)C(F)(F)F", "IC50 / µM": 0.21}
{"molecule": "CCS(=O)(=O)N1CCN(C[C@H]2CC[C@H](c3nnn4cnc5[nH]ccc5c34)CC2)CC1", "IC50 / µM": 0.2}
{"molecule": "FC(F)(F)CN(CC1CC1)C[C@H]1CC[C@H](c2nnn3cnc4[nH]ccc4c23)CC1", "IC50 / µM": 0.095}
{"molecule": "O=C1COc2cc(NC[C@H]3CC[C@H](c4nnn5cnc6[nH]ccc6c45)CC3)ccc2N1", "IC50 / µM": 0.021}
{"molecule": "O=C(CN[C@H]1CC[C@@H](c2nnn3cnc4[nH]ccc4c23)CC1)NCC(F)(F)F [384a]", "IC50 / µM": 0.56}

Shifting focus to the molecule that follows.
The molecule CC(C)(C)OC(=O)N1CC(CC#N)(NC[C@H]2CC[C@H](c3nnn4cnc5[nH]ccc5c34)CC2)C1 on JAK2 (Homo sapiens (Human), UniProt O60674): IC50 was 0.75

----------
target: JAK3 (Homo sapiens (Human), UniProt P52333)
Sequence (P52333 whole entry): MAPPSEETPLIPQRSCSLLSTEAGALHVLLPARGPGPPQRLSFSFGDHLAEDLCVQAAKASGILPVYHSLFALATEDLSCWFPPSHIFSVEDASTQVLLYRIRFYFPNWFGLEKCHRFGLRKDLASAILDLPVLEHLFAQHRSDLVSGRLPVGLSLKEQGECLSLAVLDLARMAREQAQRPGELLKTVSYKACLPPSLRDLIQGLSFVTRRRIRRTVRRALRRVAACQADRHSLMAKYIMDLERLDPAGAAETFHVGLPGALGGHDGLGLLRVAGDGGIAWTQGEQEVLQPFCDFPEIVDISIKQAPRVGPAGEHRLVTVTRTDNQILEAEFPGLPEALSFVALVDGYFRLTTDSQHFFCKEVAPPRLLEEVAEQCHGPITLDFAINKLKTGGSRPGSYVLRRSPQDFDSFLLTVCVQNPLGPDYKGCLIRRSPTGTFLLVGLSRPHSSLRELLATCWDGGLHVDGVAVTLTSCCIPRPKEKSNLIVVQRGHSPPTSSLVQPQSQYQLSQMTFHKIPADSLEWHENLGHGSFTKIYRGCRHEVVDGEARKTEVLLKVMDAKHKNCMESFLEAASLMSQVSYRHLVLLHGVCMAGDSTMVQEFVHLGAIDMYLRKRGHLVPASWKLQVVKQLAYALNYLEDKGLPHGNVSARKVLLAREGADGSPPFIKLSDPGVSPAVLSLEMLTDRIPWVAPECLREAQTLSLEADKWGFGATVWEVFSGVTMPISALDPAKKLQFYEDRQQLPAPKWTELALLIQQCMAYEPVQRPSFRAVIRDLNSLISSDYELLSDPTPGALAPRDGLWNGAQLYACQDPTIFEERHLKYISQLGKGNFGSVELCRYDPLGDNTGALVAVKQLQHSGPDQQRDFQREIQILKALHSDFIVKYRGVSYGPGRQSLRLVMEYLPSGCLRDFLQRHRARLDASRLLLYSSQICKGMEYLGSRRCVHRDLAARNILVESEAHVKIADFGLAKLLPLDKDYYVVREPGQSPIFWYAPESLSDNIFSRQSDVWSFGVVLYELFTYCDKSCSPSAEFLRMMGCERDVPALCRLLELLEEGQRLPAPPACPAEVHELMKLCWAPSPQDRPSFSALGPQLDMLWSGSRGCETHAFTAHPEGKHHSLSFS
protocol: Enzyme assay (Assay Example^a 1), JAK3
Format: biochemical
test.context: ATP 100 μM
The entries below come with measured IC50 values attached.
Entry rule: numbers only, all in µM.

Example entries and their recorded answers appear below.
{"compound": "Brc1csc(CN2CCC(c3nnn4cnc5[nH]ccc5c34)CC2)c1 [compound 237]", "quantitative.readout": 0.41}
{"compound": "COCC1(NC[C@H]2CC[C@H](c3nnn4cnc5[nH]ccc5c34)CC2)CC1 [compound 293]", "quantitative.readout": 0.94}
{"compound": "c1cc2c(ncn3nnc([C@H]4CC[C@H](CN5CCC5)CC4)c23)[nH]1 [compound 286]", "quantitative.readout": 0.57}

// field: IC50; key: Cc1ccc(CN(C[C@H]2CC[C@H](c3nnn4cnc5[nH]ccc5c34)CC2)C(=O)CC#N)o1 [compound 410] ; value = 0.32

Memo: c1cc2c(ncn3nnc([C@H]4CC[C@H](CNC5COC5)CC4)c23)[nH]1 [compound 294] , reported IC50: 0.48

----------
target: JAK2 (Homo sapiens (Human))
protocol: JAK2 enzyme assay (Assay Example^b 1)
test.context: IC50 (μM) JAK2, ATP 100 μM
assay.metric: log10 of IC50 (log10 of the value in µM)
The common logarithm of IC50 in µM is what is listed.

Past entries and their recorded results:
{"compound": "Cn1c(=O)c2cnc3[nH]ccc3c2n(C2CCCCC2)c1=O [Synthetic Example^b 138]", "log10 of IC50": -0.38}
{"compound": "O=c1[nH]c(=O)n(C2C3CC4CC2CC(O)(C4)C3)c2c1cnc1[nH]ccc12 (stereo not drawn) [compound 104]", "log10 of IC50": -1.34}

Value of log10 of IC50 reported for the compound O=c1ccn(C2C3CC4CC2CC(O)(C4)C3)c2c1cnc1[nH]ccc12 (stereo not drawn) [compound 107] is -0.22

Reported log10 of IC50 ( O=C(CC(F)(F)F)N(CC(F)(F)F)C[C@H]1CC[C@H](n2c(=O)[nH]c(=O)c3cnc4[nH]ccc4c32)CC1 ) = -1.26

Entry under test: O=c1ccn(C2C3CC4CC2CC(O)(C4)C3)c2c1cnc1[nH]ccc12 (stereo not drawn) [compound 106] . Its log10 of IC50 was -0.60

----------
target: JAK1 (Homo sapiens (Human), UniProt P23458)
protocol: Enzyme assay (Assay Example^a 1), JAK1
Format: biochemical
test.context: ATP 100 μM
// NB: equality with 0.007 µM counts as FALSE; only IC50 strictly below is TRUE

Completed entries (count: 5):
{"compound": "N#C[C@H]1CCN(C(=O)[C@H]2CC[C@H](c3nnn4cnc5[nH]ccc5c34)CC2)C1 [compound 357]", "assigned.category": "FALSE"}
{"compound": "CC1CC1NC[C@H]1CC[C@H](c2nnn3cnc4[nH]ccc4c23)CC1 (some centres unmarked) [compound 291]", "assigned.category": "TRUE"}
{"compound": "c1cc2c(ncn3nnc([C@H]4CC[C@H](CN5CCCC5)CC4)c23)[nH]1 [compound 287]", "assigned.category": "TRUE"}
{"compound": "Fc1cc(C(F)(F)F)cc(F)c1CN1CCC(c2nnn3cnc4[nH]ccc4c23)CC1 [compound 224]", "assigned.category": "TRUE"}
{"compound": "N#CCOc1ccc(CN2CCC(c3nnn4cnc5[nH]ccc5c34)CC2)cc1 [compound 213]", "assigned.category": "FALSE"}

I'd appreciate it if you could check whether OC(CNC[C@H]1CC[C@H](c2nnn3cnc4[nH]ccc4c23)CC1)C(F)(F)F (some centres unmarked) [compound 343] has IC50 smaller than 0.007 µM. FALSE

API: query returns whether the compound falls strictly under 0.007 µM in IC50. Query: O=S(=O)(O)C[C@H]1CC[C@H](c2nnn3cnc4[nH]ccc4c23)CC1 [compound 416] FALSE

Criterion: IC50 strictly below 0.007 µM. Is it met by FC(F)CN[C@H]1CC[C@H](c2nnn3cnc4[nH]ccc4c23)CC1 [399b] ? FALSE
